For each entry below, report its EC50 value.
system: A549; assay: Cytotoxicity against human A549 cells; format: functional; conditions: read-out: ED50 (the source's name)

Worked examples, 4 molecules total:
{"record_smiles": "C=C(CO)[C@H]1Cc2c(ccc3c2O[C@@H]2COc4cc(OC)c(OC)cc4[C@]2(O)C3=O)O1", "EC50": "< 0.001 µg/mL"}
{"record_smiles": "C=C(CO)[C@H]1Cc2c(ccc3c2O[C@@H]2COc4cc(OC)c(OC)cc4[C@@H]2C3=O)O1", "EC50": "0.05 µg/mL"}
{"record_smiles": "COc1cc2c(cc1OC)[C@]1(O)C(=O)c3ccc4c(c3O[C@@H]1CO2)C=CC(C)(C)O4", "EC50": "< 0.001 µg/mL"}
{"record_smiles": "COc1cc2c(cc1OC)[C@@H]1C(=O)c3ccc4c(c3O[C@@H]1CO2)C[C@H](C(C)(C)O)O4", "EC50": "0.86 µg/mL"}

Moving on to the next molecule.
[in] Reported EC50 for A549, given COc1cc2c(cc1OC)[C@]1(O)C(=O)c3ccc4c(c3O[C@@H]1CO2)C[C@H](C(C)(C)O)O4 ?
[out] 9.28 µg/mL

====

Kindly supply the reported EC50 values for the records listed here.
system: TE-671; assay: Cytotoxicity against human TE671 cells; assay type: functional; conditions: read-out: ED50 (the source's name)
Give bare numbers, in µg/mL.

{"compound": "COc1cc2c(cc1OC)[C@@H]1C(=O)c3ccc4c(c3O[C@@H]1CO2)C[C@H](C(C)(C)O[C@@H]1O[C@H](CO)[C@@H](O)[C@H](O)[C@H]1O)O4", "study_target": "TE-671", "quantity_unit": "µg/mL", "readout_value": 2.95}

Your task in this section: give EC50 for each listed record.
1. COc1cc2c(cc1OC)[C@]1(O)C(=O)c3ccc4c(c3O[C@@H]1CO2)C[C@H](C(C)(C)O)O4
2. COc1cc2c(cc1OC)[C@]1(O)C(=O)c3ccc4c(c3O[C@@H]1CO2)C=CC(C)(C)O4 [TEPHROSIN]
3. COc1cc2c(cc1OC)[C@@H]1C(=O)c3ccc4c(c3O[C@@H]1CO2)C[C@H](C(C)(C)O)O4 [DALPANOL]

[out]
1. 0.12
2. 0.05
3. 0.49

====

system: HCT-8; experiment: Cytotoxicity against human HCT8 cells; type: functional; settings: read-out: ED50 (the source's name)
measured_parameter: EC50 (µg/mL)
Answers are plain numbers, in µg/mL.

These recorded examples may help you get a feel for the data.
{"molecule": "COc1cc2c(cc1OC)[C@@H]1C(=O)c3ccc4c(c3O[C@@H]1CO2)C[C@H](C(C)(C)O)O4 [DALPANOL]", "measured_parameter": "EC50", "readout_value": 0.48}
{"molecule": "COc1cc2c(cc1OC)[C@]1(O)C(=O)c3ccc4c(c3O[C@@H]1CO2)C=CC(C)(C)O4 [TEPHROSIN]", "measured_parameter": "EC50", "readout_value": 0.09}
{"molecule": "C=C(CO)[C@H]1Cc2c(ccc3c2O[C@@H]2COc4cc(OC)c(OC)cc4[C@@H]2C3=O)O1 [AMORPHIGENIN]", "measured_parameter": "EC50", "readout_value": 0.03}
{"molecule": "COc1cc2c(cc1OC)[C@@H]1C(=O)c3ccc4c(c3O[C@@H]1CO2)C[C@H](C(C)(C)O[C@@H]1O[C@H](CO)[C@@H](O)[C@H](O)[C@H]1O)O4", "measured_parameter": "EC50", "readout_value": 7.43}
{"molecule": "COc1cc2c(cc1OC)[C@]1(O)C(=O)c3ccc4c(c3O[C@@H]1CO2)C[C@H](C(C)(C)O)O4", "measured_parameter": "EC50", "readout_value": 0.56}

# evaluate next
[in] May I ask what EC50 has been recorded for COc1ccc2c(=O)c(-c3cc(OC)c(OC)cc3OC)coc2c1 ?
[out] 4.63

Hey, just so you know, these numbers are from ChEMBL document CHEMBL1147359.
